Assembled from different publications: Ki for Carbonic anhydrase 2 (Homo sapiens, UniProt P00918).
Answer format: numeric, nM implied, no suffix.

Record excerpt, results attached:
COC(=O)[C@H]1O[C@@H](S(=O)(=O)NCc2ccc(S(N)(=O)=O)cc2)[C@H](OC(C)=O)[C@@H](OC(C)=O)[C@H]1OC(C)=O : 65.8
O=C(N/N=C/c1ccccc1)Nc1n[nH]c(=S)s1 : 354000
NS(=O)(=O)c1ccc(C(=O)Nc2ccc([Se][C@@H]3O[C@H](CO)[C@@H](O)[C@H](O)[C@H]3O)cc2)cc1 : 6.1

Entry "NS(=O)(=O)c1cc(C(=O)N[C@H](C(=O)O)c2ccccc2)ccc1Cl" , Carbonic anhydrase 2 (Homo sapiens, UniProt P00918) data, Ki value: 160

Item "Cn1nc(S(N)(=O)=O)s/c1=N/S(=O)(=O)c1cccc(C(=O)OCCO)c1" was tested on Carbonic anhydrase 2 (Homo sapiens, UniProt P00918); the reported Ki is 5.2
